System: UO-31
protocol summary: NCI tumour cell line growth inhibition, 48 h
Active and inactive are the calls of the source. Rule as the data show it: active = GI50 up to about 1.1 µM and inactive = higher.

compound: CNC(=O)OCc1nc(SSC(C)(C)C)n(C)c1COC(=O)NC
GI50: 9.02 µM (inactive)
//
compound: CC(=O)CC1CCC(=O)/C=C/C(=O)OC(CC(C)=O)CCC(=O)/C=C/C(=O)O1 (stereo not given)
GI50: 12.6 µM (inactive)
//
compound: COC1(OC)C2(Cl)C(Cl)=C(Cl)C1(Cl)C1C2C2CC1(C(=O)O)c1ccccc12 (stereo not given)
GI50: 21.9 µM (inactive)
//
compound: CC1OC(n2cc(Cl)c(=O)[nH]c2=O)C=C(OC(=O)c2ccccc2)C1=O (stereo not given)
GI50: > 100 µM (inactive)
//
compound: CN(C)c1ccc([S+]([O-])Nc2ccccc2)cc1 (stereo not given)
GI50: 11.1 µM (inactive)
//
compound: Cc1ccccc1-n1c(CCl)nc2ccc(Br)cc2c1=O
GI50: 14.9 µM (inactive)
//
compound: C=C/C(C)=C/[C@H](C)C(=O)C[C@H](O)CC1CC(=O)NC(=O)C1
GI50: 48.9 µM (inactive)
//
compound: NNC(=O)/C(=C/c1ccc(Cl)c(Cl)c1)NC(=O)c1ccccc1
GI50: > 100 µM (inactive)
//
compound: CC(=O)N(C(C)=O)n1c(-c2ccccc2)n[nH]c1=O
GI50: > 100 µM (inactive)
//
compound: c1ccc(-c2nn(-c3ccccc3)[n+](-c3ccccc3)n2)cc1
GI50: > 100 µM (inactive)

----------
System: IGROV-1
protocol summary: NCI tumour cell line growth inhibition, 48 h
Calls of active or inactive are those of the source. Cut-off read from the data, not from the text of the source: active = GI50 up to about 1.1 µM and inactive = higher.
Entries annotated with measured GI50
reported endpoint: GI50

molecule: Brc1ccc2c(c1)C1(c3cc(Br)ccc3-2)c2cc(Br)ccc2-c2ccc(Br)cc21
assayed target: IGROV-1
reported endpoint: GI50
value measured: > 100 µM (inactive)
//
molecule: Cc1ccccc1-n1c(CCl)nc2ccc(Br)cc2c1=O
assayed target: IGROV-1
reported endpoint: GI50
value measured: 14.3 µM (inactive)
//
molecule: CNc1cc2oc(=O)cc(C)c2cc1C
assayed target: IGROV-1
reported endpoint: GI50
value measured: > 100 µM (inactive)
//
molecule: CCN(CC)C1Oc2cc3c(cc2C(c2cccc(OC)c2OC)C1C)OCO3 (stereo unspecified)
assayed target: IGROV-1
reported endpoint: GI50
value measured: 4.58 µM (inactive)
//
molecule: N#Cc1nc(Nc2ccc([N+](=O)[O-])cc2)sc1N
assayed target: IGROV-1
reported endpoint: GI50
value measured: 23.4 µM (inactive)
//
molecule: O=c1ccn(CC2(CO)CC(Cc3ccccc3)C2)c(=O)[nH]1 (stereo unspecified)
assayed target: IGROV-1
reported endpoint: GI50
value measured: > 100 µM (inactive)
//
molecule: Fc1ccc2c(c1)nc1n2C(c2c(Cl)cccc2Cl)SC1 (stereo unspecified)
assayed target: IGROV-1
reported endpoint: GI50
value measured: 14.1 µM (inactive)
//
molecule: COc1ccc(/C=N/Nc2nc(-c3cc4oc(=O)n(C)c4cc3Cl)cs2)cc1OC
assayed target: IGROV-1
reported endpoint: GI50
value measured: 14 µM (inactive)
//
molecule: Cc1c(OCc2ccccc2)c(=O)ccn1CCc1c[nH]c2ccccc12
assayed target: IGROV-1
reported endpoint: GI50
value measured: 26.6 µM (inactive)
//
molecule: Cc1ccc(S(=O)(=O)N/N=C2/CC3CCC4CC2CC34)cc1 (stereo unspecified)
assayed target: IGROV-1
reported endpoint: GI50
value measured: > 100 µM (inactive)
//
molecule: COC1C=CC23c4cc5c(cc4C(O)OC2CN(C)C3C1)OCO5 (stereo unspecified)
assayed target: IGROV-1
reported endpoint: GI50
value measured: 4.72 µM (inactive)

----------
Test system: RPMI-8226
protocol summary: NCI tumour cell line growth inhibition, 48 h
The source made the active and inactive calls. Rule as the data show it: active = GI50 up to about 1.1 µM and inactive = higher.
Possible outcomes: YES = active, NO = inactive

molecule: COc1ccc2c(ccc3c(COC(=O)NC(C)C)c(COC(=O)NC(C)C)n(C)c32)c1
class name: NO
//
molecule: Cc1ccccc1NC(=S)N/N=C(/c1ccccc1)c1ccccn1
class name: YES
//
molecule: COc1cc(Nc2cnc3cc(C(F)(F)F)ccc3n2)cc(OC)c1OC
class name: NO
//
molecule: O=c1oc2ccccc2c(Nc2ccc3c(c2)S(=O)(=O)c2ccccc2O3)c1[N+](=O)[O-]
class name: NO
//
molecule: Cc1nn(C)c2nc3ccc(Cl)cc3c(-c3ccccc3)c12
class name: NO
//
molecule: CCOC(=O)C1C(c2ccc(Cl)cc2Cl)NC(c2ccc(C)cc2)C(C(=O)OC)S1(=O)=O (stereo not given)
class name: NO
//
molecule: CCOc1cccc2ccc[n+](CC)c12
class name: NO
//
molecule: CC(C)c1ccc(C2C3=C(N=C4SCC(=O)N42)C(=O)c2ccccc23)cc1 (stereo not given)
class name: NO
//
molecule: Clc1ccc(-c2nc3cc(C45CC6CC(CC(C6)C4)C5)ccc3[nH]2)cc1
class name: NO
//
molecule: COC1(OC)C2(Cl)C(Cl)=C(Cl)C1(Cl)C1C2C2CC1(C(=O)O)c1ccccc12 (stereo not given)
class name: NO

----------
System: U-251
protocol summary: NCI tumour cell line growth inhibition, 48 h
Calls of active or inactive are those of the source. Cut-off read from the data, not from the text of the source: active = GI50 up to about 1.1 µM and inactive = higher.
Possible outcomes: Yes (active), No (inactive)

compound: O=S(=O)(N/N=C/c1cccc(Cl)c1Cl)c1ccccc1
class name: No
--
compound: COc1ccc(C2=C(Cl)C(=O)O/C2=C\c2ccc(OC)c(Br)c2)cc1Cl
class name: No
--
compound: Cc1ccc2oc(=O)c(C(=O)Nc3nc(C45CC6CC(CC(C6)C4)C5)cs3)cc2c1
class name: No
--
compound: CN(CCNCc1cn(C)c2c1ccc1ccccc12)CCNCc1cn(C)c2c1ccc1ccccc12
class name: Yes
--
compound: CC(C)=CC(=O)Oc1ccc([N+](=O)[O-])cc1
class name: No
--
compound: CN(C)c1ccc([S+]([O-])Nc2ccccc2)cc1 (stereo unspecified)
class name: No

----------
Tested on: A549
protocol summary: NCI tumour cell line growth inhibition, 48 h
Active and inactive are the calls of the source. Cut-off read from the data, not from the text of the source: active = GI50 up to about 1.1 µM and inactive = higher.
Entries annotated with measured GI50
reported endpoint: GI50

compound: Cc1c(Cl)c(=O)oc2cc(OCC(O)COC(C)C)ccc12 (stereo unspecified)
assayed target: A549
value measured: 42.2 µM (inactive)
//
compound: COc1ccc(-c2cc3c(c4cc(OC)ccc24)C(=O)OC3=O)cc1
assayed target: A549
value measured: > 100 µM (inactive)
//
compound: CN1C2C=C(c3ccccc3)CC1CC2 (stereo unspecified)
assayed target: A549
value measured: > 100 µM (inactive)
//
compound: COc1ccc(/C=C2\CCCCCC2=O)cc1
assayed target: A549
value measured: > 100 µM (inactive)
//
compound: Cc1cccc(C(C)C)c1NC(=O)C(=O)CC(=O)c1c(C)[n+]([O-])c2ccccc2[n+]1[O-]
assayed target: A549
value measured: 36.7 µM (inactive)
//
compound: Cc1ccc(O)c(C2=CC(c3cccc(Br)c3)SC(=N)N2)c1 (stereo unspecified)
assayed target: A549
value measured: 25.8 µM (inactive)

----------
System: UO-31
protocol summary: NCI tumour cell line growth inhibition, 48 h
Active and inactive are the calls of the source. Cut-off read from the data, not from the text of the source: active = GI50 up to about 1.1 µM and inactive = higher. Where a SMILES comes first, the peptide text is derived from it. Peptide text beside a SMILES is read from it. [ ]: non-standard residue; d: D form. The star is where a group is joined. * marks the point of attachment. Bn2Val = CC(C)[C@@H](C(=O)*)N(Cc1ccccc1)Cc1ccccc1; NH(4-F-benzyl) = Fc1ccc(CN*)cc1; NMeV = CN[C@H](C(=O)O)C(C)C; dNMeA = CN[C@H](C)C(=O)O; Boc = CC(C)(C)OC(=O)*
Possible outcomes: Y = active, N = inactive

molecule: O=C1C(c2c(O)[nH]c3ccc(S(=O)(=O)O)cc23)=Nc2ccccc21
class name: N
--
molecule: COc1ccc(C2=C(Cl)C(=O)O/C2=C\c2ccc(OC)c(Br)c2)cc1Cl
class name: N
--
molecule: C[C@]12CC[C@H]3[C@@H](CC=C4C[C@@H](O)CC[C@@]43C)[C@@H]1CC[C@@H]2N(CCO)CCO
class name: N
--
molecule: Cc1cn(C2CC(n3cncn3)C(C(C)O)O2)c(=O)[nH]c1=O (configuration not stated)
class name: N
--
molecule: CC(Nc1ccc(Cl)c(Cl)c1)c1ccncc1 (configuration not stated)
class name: N
--
molecule: CCCCCc1cccc(=O)o1
class name: N
--
molecule: Cc1cccc(C[C@@]2(SCc3ccccc3)C(C)(C)[C@@H]3CC[C@@]2(C)C3)n1
class name: N
--
molecule: COc1cc(OCc2nc3cc(C(F)(F)F)ccc3nc2-c2ccccc2)cc(OC)c1OC
class name: N
--
molecule: O=C(Nc1ccc(Cl)cc1)c1cc(S(=O)(=O)Nc2n[nH]c(Nc3ccc4ccccc4c3)n2)c(SSc2cc(Cl)c(C(=O)Nc3ccc(Cl)cc3)cc2S(=O)(=O)Nc2n[nH]c(Nc3ccc4ccccc4c3)n2)cc1Cl
class name: N
--
molecule: CCOC(=O)c1c(N2CCCC2)[nH]c(=O)c(C(c2ccc(Cl)c([N+](=O)[O-])c2)c2c(O)c(C(=O)OCC)c(N3CCCC3)[nH]c2=O)c1O
class name: N
--
molecule: CCCCCCCCCCCCCCC(O)C[N+](C)(CCO)CCO (configuration not stated)
class name: N
--
molecule: COC(=O)C1(c2ccc(N(C)C)cc2OC)CCCN(C(=O)Oc2ccccc2[N+](=O)[O-])CCc2c1[nH]c1ccccc21 (configuration not stated)
class name: N
--
molecule: COc1cccc(/N=N/N2CCCC2)c1
class name: N
--
molecule: COP(=O)(OC)C(Cc1cn(C(C)=O)c2ccccc12)C(=O)O (configuration not stated)
class name: N
--
molecule: O=C(O)CCSC(=O)Nc1cccc2ccccc12
class name: N
--
molecule: CC(=O)c1cc2c(s1)C(=O)c1sccc1C2=O
class name: Y
--
molecule: COC(=O)C1CC2(C)C=CC1N(C(=O)OCc1ccccc1)C2 (configuration not stated)
class name: N
--
molecule: CC1(C)C(=NN=C(N)N)C(C)(C)C1=NN=C(N)N
class name: N
--
molecule: CC(C)[C@H](NC(=O)[C@H](C(C)C)N(Cc1ccccc1)Cc1ccccc1)C(=O)N(C)[C@H](C(=O)N1CCC[C@H]1C(=O)N(C)[C@H](C)C(=O)NCc1ccc(F)cc1)C(C)C (Bn2Val-V[NMeV]P[dNMeA]-{NH(4-F-benzyl)})
class name: N
--
molecule: CN(N=O)C(=O)NNC(=O)N(C)N=O
class name: N
--
molecule: CSCCC(NC(=O)C(CC(C)C)NC(=O)CNC(=O)OC(C)(C)C)C(=O)N(C)C (stereo not drawn) (Boc-Gly-Leu-Met-NMe2; configuration not given here)
class name: N
--
molecule: CC#C[P+](c1ccccc1)(c1ccccc1)c1ccccc1
class name: N
--
molecule: O=C(O)CN(CCNC(=O)OCC1c2ccccc2-c2ccccc21)CCNC(=O)OCC1c2ccccc2-c2ccccc21
class name: N
--
molecule: O=C(O)CSc1nnc(Cc2ccccc2)[nH]1
class name: N
--
molecule: O=C(O)CC(Cc1ccccc1)C(=O)O (configuration not stated)
class name: N
--
molecule: CC1=NN(C(=O)c2ccncc2)C(=O)C1
class name: N
--
molecule: COC(=O)c1cccc2cccc(C(=O)Nc3ccc(Cl)cc3)c12
class name: N
--
molecule: CN(C)N1C(=O)c2ccccc2NC1c1ccccc1 (configuration not stated)
class name: N
--
molecule: CCCCc1c2c(nc3c1CCc1cc4cc5c(nc4nc1-3)-c1nc3c(c(CCCC)c1CC5)CCCC3)CCCC2
class name: N
--
molecule: O=C(NN=C1CCCCC1)Nc1ccccc1Cl
class name: N
--
molecule: O=[N+]([O-])C(=C(N1CCOCC1)N1CCOCC1)/C(Cl)=C(\Cl)[N+](=O)[O-]
class name: N
--
molecule: COC(=O)/C=C(/C=C1/C(C#N)=C(N)N(c2ccc(Cl)cc2)C1(C)/C(=C/C(=O)OC)C(=O)OC)C(=O)OC (configuration not stated)
class name: N
--
molecule: COc1cc(NC(C)c2ccc3c(c2)OCCO3)cc(OC)c1OC (configuration not stated)
class name: N
--
molecule: O=C(Cc1ccccc1)NN1C(=O)C(Cl)C1c1cccc([N+](=O)[O-])c1 (configuration not stated)
class name: N
--
molecule: COC(=O)CNC(=O)C(Cc1ccccc1)NC(=O)C(CCSC)NC(=O)C(Cc1ccc(O)cc1)NC(=O)OC(C)(C)C (configuration not stated) (Boc-YMFG-OMe; configuration not given here)
class name: N
--
molecule: O=c1[nH]c(-c2ccc(-c3nc4cc([N+](=O)[O-])ccc4c(=O)[nH]3)cc2)nc2cc([N+](=O)[O-])ccc12
class name: N
--
molecule: O=C1C(C(O)(C(F)(F)F)C(F)(F)F)CCC1C(O)(C(F)(F)F)C(F)(F)F (configuration not stated)
class name: Y
